What LC50 was measured for each of the following?
test: Acute contact toxicity against adult Anagrus nilaparvatae assessed as dead parasitoid wasps compound treated for 1 hr measured after 8 hr wash-out period

Entry O=C(NC(=O)c1c(F)cccc1F)Nc1cc(Cl)c(Oc2ncc(C(F)(F)F)cc2Cl)c(Cl)c1 [CHLORFLUAZURON] : reported LC50 = ?
> 1000 mgAi/L

Using the record for CC(C)N1C(=O)N(c2ccccc2)CS/C1=N\C(C)(C)C [BUPROFEZIN] , report its LC50.
> 1000 mgAi/L

Any idea what LC50 was measured for O=C(NC(=O)c1c(F)cccc1F)Nc1cc(Cl)c(OC(F)(F)C(F)F)c(Cl)c1 [HEXAFLUMURON] ?
> 1000 mgAi/L

I'd like to know its LC50. The compound in question is Cc1cc(C)cc(C(=O)N(NC(=O)c2ccc3c(c2C)OC(C)C3)C(C)(C)C)c1 (centres undefined) [FUXIAN]
> 1000 mgAi/L
